Target: ABCB4 WT (Homo sapiens, UniProt P21439)
Construct: expressed in transfected cells
Sequence (P21439 whole entry): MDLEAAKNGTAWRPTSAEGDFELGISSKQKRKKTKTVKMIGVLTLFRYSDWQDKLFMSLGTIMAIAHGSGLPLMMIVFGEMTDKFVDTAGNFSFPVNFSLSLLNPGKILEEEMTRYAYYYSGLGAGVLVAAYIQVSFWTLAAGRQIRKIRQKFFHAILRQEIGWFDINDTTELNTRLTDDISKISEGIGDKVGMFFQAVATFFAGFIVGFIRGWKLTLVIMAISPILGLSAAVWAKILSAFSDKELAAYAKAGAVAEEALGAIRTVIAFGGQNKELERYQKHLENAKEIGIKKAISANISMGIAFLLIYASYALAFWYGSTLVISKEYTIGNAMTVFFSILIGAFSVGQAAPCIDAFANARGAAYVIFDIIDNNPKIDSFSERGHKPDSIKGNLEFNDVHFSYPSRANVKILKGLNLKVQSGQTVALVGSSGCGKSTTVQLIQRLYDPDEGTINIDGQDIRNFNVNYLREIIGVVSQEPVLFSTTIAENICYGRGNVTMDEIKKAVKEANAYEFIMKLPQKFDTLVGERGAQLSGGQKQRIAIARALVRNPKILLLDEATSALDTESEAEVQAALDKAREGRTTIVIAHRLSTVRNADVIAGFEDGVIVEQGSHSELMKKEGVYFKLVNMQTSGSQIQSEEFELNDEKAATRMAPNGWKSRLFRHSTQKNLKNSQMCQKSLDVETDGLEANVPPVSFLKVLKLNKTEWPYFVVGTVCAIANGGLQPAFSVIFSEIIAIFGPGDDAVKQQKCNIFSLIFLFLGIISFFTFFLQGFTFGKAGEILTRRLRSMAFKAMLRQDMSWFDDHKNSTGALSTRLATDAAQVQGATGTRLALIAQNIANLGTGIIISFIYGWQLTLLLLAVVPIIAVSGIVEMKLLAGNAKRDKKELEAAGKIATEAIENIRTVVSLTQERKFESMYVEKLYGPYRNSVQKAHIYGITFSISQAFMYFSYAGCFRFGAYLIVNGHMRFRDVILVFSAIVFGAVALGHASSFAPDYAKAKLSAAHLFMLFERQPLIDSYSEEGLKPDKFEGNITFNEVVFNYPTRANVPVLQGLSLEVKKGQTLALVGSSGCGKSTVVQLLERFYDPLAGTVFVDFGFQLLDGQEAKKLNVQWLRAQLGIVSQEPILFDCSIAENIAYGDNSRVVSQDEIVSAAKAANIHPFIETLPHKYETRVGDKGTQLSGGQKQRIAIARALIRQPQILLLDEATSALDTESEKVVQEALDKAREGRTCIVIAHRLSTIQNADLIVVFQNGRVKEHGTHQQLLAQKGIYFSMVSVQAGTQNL
Test: ABCB4 WT assay: HiBit protein expression
Format: cell-based
Settings: HEK-293 cells stably expressing HiBit-tagged ABCB4 WT; 24 h treatment; top concentration 30 μM; read-out: ABCB4 WT EC50, Emax
Protocol: To assess activity against ABCB4, compounds were screened in an assay measuring protein expression, using cells transfected with cDNA encoding HiBit-tagged ABCB4 wild-type. […] Dose response curves include eleven doses with the top final concentration at 30 μM in 0.3% DMSO. […] The plates are rotated at room temperature for 2 minutes and incubated for 1 hour at 25° C. before luminescent signal is acquired using an EnVision Multimode Plate Reader (PerkinElmer). […]
OBSERVABLE: EC50

Some solved cases for reference:
mol_smiles=CCS(=O)(=O)Nc1ccc(-c2cncc(C#N)c2)nc1Oc1c(C)cc(C(F)(F)F)nc1C1CC1 observed_result="< 1 µM"
mol_smiles=Cc1cc(C2CC2)nc(C2CC2)c1Oc1nc(-c2cncc(C#N)c2)ccc1NS(C)(=O)=O observed_result="< 1 µM"
mol_smiles=Cc1cc(C)c(Oc2nc(-c3cncc(C(N)=O)c3)ccc2NS(C)(=O)=O)c(C2CC2)n1 observed_result="≥ 25 µM"
mol_smiles=Cc1cc(C2CC2)nc(C)c1Oc1nc(-c2cncc(Cl)c2)ccc1NS(C)(=O)=O observed_result="< 1 µM"

Give recorded EC50. Cc1cc(C)c(Oc2nc(-c3cncc(Cl)c3)ccc2N(C)S(=O)(=O)Cc2ccccc2)c(C)c1
< 25 µM

Given the compound Cc1cc(C)c(Oc2nc(-c3cncc(C#N)c3)cnc2NS(C)(=O)=O)c(C)n1 , write its reported EC50.
≥ 25 µM
